target: T1, Rat ASGR-1 (rat, UniProt P02706 1-284)
T1 construct: Expressed on HEK 293 cells or as membrane prep on beads; cDNA GenBank NM_012503
T1 sequence: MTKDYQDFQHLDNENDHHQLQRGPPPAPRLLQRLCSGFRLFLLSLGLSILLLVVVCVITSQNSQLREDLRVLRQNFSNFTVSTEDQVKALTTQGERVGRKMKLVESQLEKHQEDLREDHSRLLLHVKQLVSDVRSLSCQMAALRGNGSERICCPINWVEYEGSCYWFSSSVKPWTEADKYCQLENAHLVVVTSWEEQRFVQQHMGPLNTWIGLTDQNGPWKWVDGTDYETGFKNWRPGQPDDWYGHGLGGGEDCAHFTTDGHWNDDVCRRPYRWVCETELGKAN
assay.procedure: FACS on transfected HEK 293 cells or membrane preps on beads; binding = signal at least 2x irrelevant IgG
metric.name: binding result

INSERT INTO assay_data (binder, meas_value) VALUES
  ('75G3 (antibody, V domains shown, Tested as hybridoma supernatant at normalized concentration) VH: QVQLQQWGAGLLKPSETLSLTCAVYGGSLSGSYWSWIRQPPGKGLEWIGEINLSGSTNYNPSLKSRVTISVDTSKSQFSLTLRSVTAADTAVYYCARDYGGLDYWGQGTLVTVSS VL: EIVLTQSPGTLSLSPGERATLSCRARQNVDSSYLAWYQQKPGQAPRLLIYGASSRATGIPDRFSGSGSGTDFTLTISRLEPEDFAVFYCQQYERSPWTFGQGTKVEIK', 'no binding'),
  ('7E11 (antibody, V domains shown, Tested as hybridoma supernatant at normalized concentration) VH: QVQLVESGGGVVQPGRSLRLSCAASGFTFSSFGMHWVRQAPGKGLEWVAIIWHDGSNKYYADSVKGRFTISRDNSNNTLYLQMSSLRAEDTAVYYCARDLSMGGMDVWGQGTTVTVSS VL: DIQMTQSPSSLSASVGDRVTIACRASQNIISYLNWYQQKPGKAPKFLIYTASSLQSGVPSRFSGSGSGTDFTLTISSLQPEDFAIYYCQQTYSTPLTFGGGTKVEIK', 'no binding'),
  ('218G4 (antibody, V domains shown, Tested as hybridoma supernatant at normalized concentration) VH: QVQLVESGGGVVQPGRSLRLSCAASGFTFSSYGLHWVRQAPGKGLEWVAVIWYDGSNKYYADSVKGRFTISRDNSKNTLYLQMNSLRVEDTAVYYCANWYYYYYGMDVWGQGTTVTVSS VL: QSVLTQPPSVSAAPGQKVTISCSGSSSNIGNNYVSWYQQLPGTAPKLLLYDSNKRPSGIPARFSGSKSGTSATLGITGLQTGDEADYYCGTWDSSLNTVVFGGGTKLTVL', 'no binding');
